Reported TGI values follow for various compounds
test system: OVCAR-5 ovarian; experiment: NCI tumour cell line growth inhibition, 48 h

INSERT INTO results (compound, system_tested, result) VALUES
  ('Cc1cc(-c2ccc(Cl)cc2)c(C#N)c(=S)n1C1OC(CO)C(O)C(O)C1O (stereo not drawn)', 'OVCAR-5 ovarian', '> 100 µM'),
  ('COC(C(=O)[C@@H](O)[C@@H](C)O)[C@@H]1Cc2cc3cc(O[C@H]4C[C@@H](O[C@H]5C[C@@H](O)[C@H](O)C(C)O5)[C@H](O)C(C)O4)c(C)c(O)c3c(O)c2C(=O)[C@H]1O[C@H]1C[C@@H](O[C@H]2C[C@@H](O[C@H]3C[C@@H](O)[C@@H](O)C(C)O3)[C@@H](O)C(C)O2)[C@H](O)C(C)O1 (stereo partly drawn)', 'OVCAR-5 ovarian', '> 32.5 µM'),
  ('Cn1c(=O)c2c(nc3sc4ncccc4c(=O)n32)n(C)c1=O', 'OVCAR-5 ovarian', '> 100 µM');

Read the next record carefully.
Query: State the recorded TGI for this entry: CN(C)C(=S)SCc1ccccc1
Result: > 100 µM
